experiment: Drug levels and tissue distribution after intraperitoneal and oral administration; format: in vivo, mice; details: mouse, lymph nodes; oral dose 50mg/Kg; 8 hours
endpoint label: concentration at 8 h (ng/mL)
Report only the number, with the unit ng/mL understood.

Task item: I have this compound here, CC(C)NC(=O)N(C(=O)Cn1cnc2c1c(=O)n(C)c(=O)n2C)C(C)C [THX-B] , and I need its recorded concentration at 8 h.
Reply: 9

###

assay: Drug levels and tissue distribution after intraperitoneal and oral administration; format: in vivo, mice; details: mouse, tissues except lymph nodes; oral dose 50mg/Kg; 24h; read-out: tissue distribution: concentration in all the tissues except the lymph nodes
endpoint label: concentration at 24 h

Task item: I have this compound here, CC(C)NC(=O)N(C(=O)Cn1cnc2c1c(=O)n(C)c(=O)n2C)C(C)C , and I need its recorded concentration at 24 h.
Reply: 12 to 20 ng/mL
